experiment: Ratio of drug concentration in brain to plasma in C57BL/6J mouse at 10 mg/kg, po measured at 30 mins by HPLC-MS/MS analysis; assay type: ADME, organism-based; settings: read-out: BPR

{"columns": ["MOLECULE", "Kp at 0.5 h"],
 "data": [
  ["O=C([O-])/C=C1\\CCCc2cc(-c3ccccc3)ccc2C1O.[Na+] (stereo unspecified)", 0.1]
]}

###

biological target: Calcium/calmodulin-dependent protein kinase type II subunit alpha (Homo sapiens); test: Binding affinity to recombinant human CaMK2alpha 6x hub domain (345 to 475 residues) expressed in Escherichia coli BL21 DE3 assessed as dissociation constant by surface plasmon resonance assay
Sequence (Q9UQM7 whole entry, the tested form may be a part): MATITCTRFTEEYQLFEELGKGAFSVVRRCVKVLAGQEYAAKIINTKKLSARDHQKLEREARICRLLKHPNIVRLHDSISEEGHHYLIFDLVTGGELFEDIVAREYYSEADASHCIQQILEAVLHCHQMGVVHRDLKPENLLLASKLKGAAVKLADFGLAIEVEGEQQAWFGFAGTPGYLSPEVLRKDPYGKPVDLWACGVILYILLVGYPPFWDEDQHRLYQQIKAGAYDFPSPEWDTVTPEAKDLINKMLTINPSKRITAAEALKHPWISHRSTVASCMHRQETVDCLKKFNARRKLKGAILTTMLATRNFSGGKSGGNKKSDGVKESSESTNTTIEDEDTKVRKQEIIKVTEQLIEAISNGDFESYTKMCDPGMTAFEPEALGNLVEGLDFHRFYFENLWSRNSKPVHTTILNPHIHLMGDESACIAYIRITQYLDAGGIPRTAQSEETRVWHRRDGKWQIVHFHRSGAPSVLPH
QUANTITY MEASURED: Kd (µM)

{"columns": ["COMPOUND", "OBS VALUE"],
 "data": [
  ["O=C(O)/C=C1\\CCCc2ccccc2C1O (stereo unspecified)", 8.9]
]}

###

assay: Metabolic stability in mouse liver microsomes assessed as intrinsic clearance per mg of protein at 0.5 uM incubated in presence of NADPH regenerating system and measured for 45 mins by LC-MS/MS analysis; assay type: ADME, Microsome; details: read-out: CLH
QUANTITY MEASURED: microsomal CLint at 0.5 µM

{"columns": ["MOLECULE", "OBS VALUE"],
 "data": [
  ["O=C([O-])/C=C1\\CCCc2cc(-c3ccccc3)ccc2C1O.[Na+] (stereo unspecified)", "> 9.9 µL/min/mg"]
]}

###

tested on: MDR1 (P-gp); assay: Apparent permeability across basolateral to apical side in MDCKII-MDR1 cells at 3 uM preincubated with P-gp/BCRP transporter dual inhibitor, elacridar for 15 to 30 mins followed by compound addition and measured after 60 to 90 mins by LC-MS/MS analysis; format: ADME, cell-based, Canis lupus familiaris, MDCK-MDR1; conditions: dog, time 60-90 min

{"columns": ["MOLECULE", "UNIT TAG", "Papp B→A at 3 µM"],
 "data": [
  ["O=C([O-])/C=C1\\CCCc2cc(-c3ccccc3)ccc2C1O.[Na+] (stereo unspecified)", "×10⁻⁶ cm/s", 15]
]}

###

test system: BCRP; test: Apparent permeability across apical to basolateral side in MDCK-II-BCRP cells at 3 uM preincubated with BCRP inhibitor, Ko 143 for 15 to 30 mins followed by compound addition and measured after 60 to 90 mins by LC-MS/MS analysis; assay type: ADME, cell-based, Canis lupus familiaris; conditions: dog, with Ko 143 (BCRP inhibitor; concentration not stated), time 60-90 min

{"columns": ["COMPOUND", "TARGET OR TEST SYSTEM", "UNIT TAG", "Papp A→B at 3 µM"],
 "data": [
  ["O=C([O-])/C=C1\\CCCc2cc(-c3ccccc3)ccc2C1O.[Na+] (stereo unspecified)", "BCRP", "×10⁻⁶ cm/s", 15.9]
]}

###

test: Unbound brain-to-plasma partition coefficient in C57BL/6J mouse at 10 mg/kg, po measured at 30 mins by HPLC-MS/MS analysis; assay type: ADME, organism-based; settings: read-out: K(p,uu,brain)

{"columns": ["COMPOUND", "Kp uu at 0.5 h"],
 "data": [
  ["O=C([O-])/C=C1\\CCCc2cc(-c3ccccc3)ccc2C1O.[Na+] (stereo unspecified)", 0.85]
]}

###

assay: Metabolic stability in human hepatocytes assessed as intrinsic clearance per 10^6 cells at 0.5 uM incubated in presence of NADPH regenerating system and measured for 120 mins by LC-MS/MS analysis; format: ADME, cell-based, Hepatocyte; settings: read-out: CLH

{"columns": ["MOLECULE", "UNIT TAG", "hepatocyte CLint at 0.5 µM"],
 "data": [
  ["O=C([O-])/C=C1\\CCCc2cc(-c3ccccc3)ccc2C1O.[Na+] (stereo unspecified)", "µL/min/1e6 cells", 8.6]
]}

###

assay: Metabolic stability in mouse hepatocytes assessed as intrinsic clearance per 10^6 cells at 0.5 uM incubated in presence of NADPH regenerating system and measured for 120 mins by LC-MS/MS analysis; format: ADME, cell-based, Hepatocyte; details: read-out: CLH

{"columns": ["COMPOUND", "UNIT TAG", "hepatocyte CLint at 0.5 µM"],
 "data": [
  ["O=C([O-])/C=C1\\CCCc2cc(-c3ccccc3)ccc2C1O.[Na+] (stereo unspecified)", "µL/min/1e6 cells", 65]
]}

###

assay: Metabolic stability in human liver microsomes assessed as intrinsic clearance per mg of protein at 0.5 uM incubated in presence of NADPH regenerating system and measured for 45 mins by LC-MS/MS analysis; format: ADME, Microsome; conditions: read-out: CLH
QUANTITY MEASURED: microsomal CLint at 0.5 µM

{"columns": ["COMPOUND", "OBS VALUE"],
 "data": [
  ["O=C([O-])/C=C1\\CCCc2cc(-c3ccccc3)ccc2C1O.[Na+] (stereo unspecified)", "> 9.9 µL/min/mg"]
]}

###

system: BCRP; test: Apparent permeability across basolateral to apical side in MDCK-II-BCRP cells at 3 uM measured after 60 to 90 mins by LC-MS/MS analysis; format: ADME, cell-based, Canis lupus familiaris; settings: dog, time 60-90 min
QUANTITY MEASURED: Papp B→A at 3 µM (×10⁻⁶ cm/s)

{"columns": ["COMPOUND", "QUANTITY MEASURED", "OBS VALUE"],
 "data": [
  ["O=C([O-])/C=C1\\CCCc2cc(-c3ccccc3)ccc2C1O.[Na+] (stereo unspecified)", "Papp B→A at 3 µM", 19.4]
]}

###

Ki values for the compounds below.
target: Calcium/calmodulin-dependent protein kinase type II subunit alpha (Rattus norvegicus); experiment: Displacement of [3H]NCS-382 from CaMK2alpha in rat brain cortical membrane homogenates measured after 1 hr by TopCount scintillation counting method; format: cell membranes, Cortex
Sequence (P11275 whole entry): as the sequence (Q9UQM7 whole entry, the tested form may be a part) above, with S324N counted along it
QUANTITY MEASURED: Ki (nM)

{"columns": ["COMPOUND", "OBS VALUE"],
 "data": [
  ["O=C(O)/C=C1\\CCCc2cc(F)ccc2C1O (stereo not given)", 110],
  ["O=C(O)C1=CC(O)CC1 (stereo not given)", 160],
  ["O=C(O)/C=C1\\CCCc2cc(/C=C/c3ccccc3)ccc2C1O (stereo not given)", 40],
  ["O=C(O)/C=C1\\CCCc2c(/C=C/c3ccccc3)cccc2C1O (stereo not given)", 14000],
  ["Cc1ccc2c(c1)CCC/C(=C\\C(=O)O)C2O (stereo not given)", 320],
  ["O=C(O)/C=C1\\CCCc2ccccc2C1O (stereo not given)", 340],
  ["O=C(O)/C=C1\\CCCc2c(/C=C/c3c(Cl)cccc3Cl)cccc2C1O (stereo not given)", 110],
  ["O=C(O)/C=C1\\CCCc2ccc(-c3ccccc3)cc2C1O (stereo not given)", 14000],
  ["O=C(O)/C=C1\\CCCc2c(Br)cccc2C1O (stereo not given)", 230],
  ["O=C(O)/C=C1\\CCCc2c(CCc3ccccc3)cccc2C1O (stereo not given)", 56]
]}

###

system: MDR1 (P-gp); test: Apparent permeability across apical to basolateral side in MDCKII-MDR1 cells at 3 uM measured after 60 to 90 mins by LC-MS/MS analysis; format: ADME, cell-based, Canis lupus familiaris; conditions: dog, MDCK-MDR1, time 60-90 min
QUANTITY MEASURED: Papp A→B at 3 µM

{"columns": ["COMPOUND", "OBS VALUE"],
 "data": [
  ["O=C([O-])/C=C1\\CCCc2cc(-c3ccccc3)ccc2C1O.[Na+] (stereo unspecified)", "130 nm/s"]
]}

###

test system: MDR1 (P-gp); experiment: Apparent permeability across basolateral to apical side in MDCKII-MDR1 cells at 3 uM measured after 60 to 90 mins by LC-MS/MS analysis; assay type: ADME, cell-based, Canis lupus familiaris; details: dog, MDCK-MDR1, time 60-90 min
QUANTITY MEASURED: Papp B→A at 3 µM (×10⁻⁶ cm/s)

{"columns": ["COMPOUND", "OBS VALUE"],
 "data": [
  ["O=C([O-])/C=C1\\CCCc2cc(-c3ccccc3)ccc2C1O.[Na+] (stereo unspecified)", 16.3]
]}

###

biological target: Calcium/calmodulin-dependent protein kinase type II subunit alpha (Rattus norvegicus); experiment: Displacement of [3H]HOCPCA from native CaMK2alpha in rat brain cortical membrane homogenates measured after 1 hr by TopCount scintillation counting method; assay type: cell membranes, Cortex

{"columns": ["COMPOUND", "TARGET OR TEST SYSTEM", "Ki"],
 "data": [
  ["O=C(O)/C=C1\\CCCc2ccccc2C1O (stereo not drawn)", "Calcium/calmodulin-dependent protein kinase type II subunit alpha (Rattus norvegicus)", "590 nM"],
  ["O=C(O)/C=C1\\CCCc2c(/C=C/c3ccccc3)cccc2C1O (stereo not drawn)", "Calcium/calmodulin-dependent protein kinase type II subunit alpha (Rattus norvegicus)", "81 nM"],
  ["O=C(O)C1=CC(O)CC1 (stereo not drawn)", "Calcium/calmodulin-dependent protein kinase type II subunit alpha (Rattus norvegicus)", "130 nM"]
]}
